# System: Escherichia coli
# TEST DESCRIPTION: Antibacterial activity against Escherichia coli up to 100 ug/mL after 24 hrs by broth microdilution method
# Format: functional, organism-based
Calls of active or inactive are those of the source. The calls are words filed in the database; no cut-off is given here.
PROPERTY: Activity

[[record]]
compound = "CC(C)=CC[C@H](OC(=O)CC(C)C)C1=CC(=O)c2c(O)ccc(O)c2C1=O"
assay_target = "Escherichia coli"
property = "Activity"
result = "inactive"

[[record]]
compound = "CC(C)=CC[C@H](OC(=O)C=C(C)C)C1=CC(=O)c2c(O)ccc(O)c2C1=O"
assay_target = "Escherichia coli"
property = "Activity"
result = "inactive"

[[record]]
compound = "CC(C)=CC[C@H](OC(=O)/C=C/c1ccccc1)C1=CC(=O)c2c(O)ccc(O)c2C1=O"
assay_target = "Escherichia coli"
property = "Activity"
result = "inactive"


###

# Tested on: Enterococcus faecalis
# TEST DESCRIPTION: Antibacterial activity against Enterococcus faecalis after 48 hrs by broth microdilution method
# Type: functional
Calls of active or inactive are those of the source. The calls are words filed in the database; no cut-off is given here.
PROPERTY: MBC

[[record]]
compound = "CC(C)=CC[C@H](OC(=O)CC(C)C)C1=CC(=O)c2c(O)ccc(O)c2C1=O"
result = "3.13 µg/mL"

[[record]]
compound = "CC[C@H](C)C(=O)O[C@@H](CC=C(C)C)C1=CC(=O)c2c(O)ccc(O)c2C1=O"
result = "3.13 µg/mL"

[[record]]
compound = "O=C(N[C@H](CO)[C@H](O)c1ccc([N+](=O)[O-])cc1)C(Cl)Cl"
result = "inactive"

[[record]]
compound = "CC(=O)O[C@H](CC=C(C)C)C1=CC(=O)c2c(O)ccc(O)c2C1=O"
result = "3.13 µg/mL"

[[record]]
compound = "CN[C@H](CC(C)C)C(=O)N[C@H]1C(=O)N[C@@H](CC(N)=O)C(=O)N[C@H]2C(=O)N[C@H]3C(=O)N[C@H](C(=O)N[C@H](C(=O)O)c4cc(O)cc(O)c4-c4cc3ccc4O)[C@H](O)c3ccc(c(Cl)c3)Oc3cc2cc(c3O[C@@H]2O[C@H](CO)[C@@H](O)[C@H](O)[C@H]2O[C@H]2C[C@](C)(N)[C@H](O)[C@H](C)O2)Oc2ccc(cc2Cl)[C@H]1O"
result = "inactive"

[[record]]
compound = "CC(C)=CC[C@H](OC(=O)/C=C/c1ccccc1)C1=CC(=O)c2c(O)ccc(O)c2C1=O"
result = "> 100 µg/mL"

[[record]]
compound = "CC(C)=CC[C@H](O)C1=CC(=O)c2c(O)ccc(O)c2C1=O"
result = "50 µg/mL"

[[record]]
compound = "CC(C)=CC[C@H](OC(=O)C(C)C)C1=CC(=O)c2c(O)ccc(O)c2C1=O"
result = "3.13 µg/mL"

[[record]]
compound = "CC1=CC(=O)c2c(O)cccc2C1=O"
result = "100 µg/mL"

[[record]]
compound = "CC(=O)O[C@@H](CC=C(C)C)C1=CC(=O)c2c(O)ccc(O)c2C1=O"
result = "3.13 µg/mL"


Measured on Enterococcus faecalis, CC[C@@H](C)C(=O)O[C@@H](CC=C(C)C)C1=CC(=O)c2c(O)ccc(O)c2C1=O has a documented MBC of 6.25 µg/mL

Item Cc1onc(-c2ccccc2)c1C(=O)N[C@@H]1C(=O)N2[C@@H]1SC(C)(C)[C@@H]2C(=O)O was tested on Enterococcus faecalis; the reported MBC is 50 µg/mL
